Every entry's value here was drawn from patent US20090137003A1.

Overview of reported PRNT EC50 with complement, RSV Long across a group of binders:
- system: RSV protein F of strain Long (RSV Long (ATCC number VR-26)) (UniProt P12568)
- Sequence (P12568 26-574): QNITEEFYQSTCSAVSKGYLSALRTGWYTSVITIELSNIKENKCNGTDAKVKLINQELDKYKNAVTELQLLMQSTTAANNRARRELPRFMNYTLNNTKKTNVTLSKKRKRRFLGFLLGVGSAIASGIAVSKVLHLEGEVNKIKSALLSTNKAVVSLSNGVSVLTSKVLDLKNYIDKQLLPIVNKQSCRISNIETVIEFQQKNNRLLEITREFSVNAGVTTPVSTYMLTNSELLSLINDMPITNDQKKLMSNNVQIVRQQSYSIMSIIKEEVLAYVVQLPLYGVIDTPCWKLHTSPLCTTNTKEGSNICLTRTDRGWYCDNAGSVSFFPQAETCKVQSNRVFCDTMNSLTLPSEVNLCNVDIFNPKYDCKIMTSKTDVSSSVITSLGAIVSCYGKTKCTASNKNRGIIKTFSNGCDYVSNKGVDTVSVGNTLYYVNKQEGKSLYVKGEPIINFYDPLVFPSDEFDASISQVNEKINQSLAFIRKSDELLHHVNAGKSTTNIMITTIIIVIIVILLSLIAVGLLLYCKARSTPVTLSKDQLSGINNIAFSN
- assay-method-text: cell-based or functional assay

binder	PRNT EC50 with complement, RSV Long [µg/mL]
antibody clone 894 (antibody, human IgG1, kappa, V domains shown) VH: QVQLVESGGGVVQPGKSLRLSCAASGFRFSDYGMHWVRQAPSKGLEWVAVIWHDGSNIRYADSVRGRFSISRDNSKNTLYLQMNSMRADDTAFYYCARVPFQIWSGLYFDHWGQGTLVTVSS VL: EIVMTQSPATLSVSPGERATLSCRASQSVGNNLAWYQQRPGQAPRLLIYGASTRATGIPARFSGSGSGTEFTLTISSLQSEDFAVYYCQQYDKWPETFGQGTKVDIKR	0.08
antibody clone 818 (antibody, human IgG1, kappa, V domains shown) VH: QVTLRESGPAVVKPTETLTLTCAFSGFSLNAGRVGVSWIRQPPGQAPEWLARIDWDDDKAFRTSLKTRLSISKDSSKNQVVLTLSNMDPADTATYYCARTQVFASGGYYLYYLDHWGQGTLVTVSS VL: DIQMTQSPSSLSASVGDRVTITCRASQTIASYVNWYQQKPGRAPSLLIYAASNLQSGVPPRFSGSGSGTDFTLTISGLQPDDFATYYCQQSYSYRALTFGGGTKVEIKR	0.15
antibody clone 800 (antibody, human IgG1, kappa, V domains shown) VH: QVQLVESGGAVVQPGRSLRLSCEVSGFSFSDYGMNWVRQGPGKGLEWVAVIWHDGSNKNYLDSVKGRFTVSRDNSKNTLFLQMNSLRAEDTAVYYCARTPYEFWSGYYFDFWGQGTLVTVSS VL: AIQLTQSPSSLSASVGDRVTLTCRASQGITDSLAWYQQKPGKAPKVLLYAASRLESGVPSRFSGRGSGTDFTLTISSLQPEDFATYYCQQYSKSPATFGPGTKVEIRR	0.15
